Assay Name: Cmax in Sprague-Dawley rat at 10 mg/kg, po measured for 24 hrs by LC-MS/MS analysis
Type: ADME, organism-based
Set-up: dose 10 mg/kg, time 24 hrs, route po
Condition Notes: in vivo
Measurement Type: Cmax
Report field: quantity (unit follows the number).

Cmax for O=C1NCCCCn2cc(cn2)-c2cnc3ccc(cc3c2)CCn2nc(ccc2=O)-c2ccc1c(C(F)(F)F)c2 ?
61 ng/mL

====

Assay Name: AUC(0 to t) in Sprague-Dawley rat at 10 mg/kg, po measured for 24 hrs by LC-MS/MS analysis
Assay type: ADME, organism-based
Design: time 24 hrs, dose 10 mg/kg, route po
Condition Notes: in vivo
Measurement Type: AUC(0-t) at 24 h
Give your result as the value with the unit written after it.

# query: AUC(0-t) at 24 h of entry O=C1NCCCCn2cc(cn2)-c2cnc3ccc(cc3c2)CCn2nc(ccc2=O)-c2ccc1c(C(F)(F)F)c2
48.9 ng·h/mL
